Every entry's value here was drawn from the kinase profiling compilation of Christmann-Franck et al. (2016).

# System: PRKCQ (human), Q04759 [P330L]
# Sequence (Q04759 whole entry P330L, looked up): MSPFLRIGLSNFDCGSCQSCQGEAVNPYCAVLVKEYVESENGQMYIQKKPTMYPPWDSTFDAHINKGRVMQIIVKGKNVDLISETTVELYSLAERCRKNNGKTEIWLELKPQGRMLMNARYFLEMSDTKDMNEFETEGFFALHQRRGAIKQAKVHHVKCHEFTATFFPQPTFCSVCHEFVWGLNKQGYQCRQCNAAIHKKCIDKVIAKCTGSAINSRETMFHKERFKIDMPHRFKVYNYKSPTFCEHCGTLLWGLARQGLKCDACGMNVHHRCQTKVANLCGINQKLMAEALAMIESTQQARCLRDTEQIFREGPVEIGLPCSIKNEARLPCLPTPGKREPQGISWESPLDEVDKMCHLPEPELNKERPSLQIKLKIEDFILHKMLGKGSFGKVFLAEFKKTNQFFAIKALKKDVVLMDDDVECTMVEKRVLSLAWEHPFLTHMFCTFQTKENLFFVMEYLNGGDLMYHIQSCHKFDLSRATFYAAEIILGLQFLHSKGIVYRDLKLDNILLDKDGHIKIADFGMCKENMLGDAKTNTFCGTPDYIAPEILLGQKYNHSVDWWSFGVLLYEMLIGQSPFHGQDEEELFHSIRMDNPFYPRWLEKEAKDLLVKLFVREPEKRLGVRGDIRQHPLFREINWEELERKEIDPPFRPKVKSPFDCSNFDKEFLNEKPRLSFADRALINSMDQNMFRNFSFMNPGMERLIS
# assay details: radiometric filter-binding kinase assay, Kinase HotSpot
# condition info: compound 0.5 µM; ATP 10 µM
measurement kind: residual activity (%)

O=C1NC(=O)/C(=C\c2ccc3nccnc3c2)S1: 92.8
Cn1nc2c3c(cccc31)C(=O)c1ccccc1-2: 106
CCCCc1c(-c2ccc(O)cc2)[nH]c2nccnc12: 118
O=C(c1cc2cc(O)ccc2[nH]1)c1cc2cc(O)ccc2[nH]1: 92.1
Nc1ncnc2c1cnn2-c1ccccc1: 102
CC(=O)c1ccc(N2CCOCC2)cc1O: 99.5

----------
# assayed target: EPHB3 (human)
# assay details: radiometric filter-binding kinase assay, Kinase HotSpot
# condition info: compound 0.5 µM; ATP 10 µM
measurement kind: residual activity (%)

C[C@@H]1CCN(C(=O)CC#N)C[C@@H]1N(C)c1ncnc2[nH]ccc12: 54.9
Cc1cncc2cccc(S(=O)(=O)N3CCCN(C(=O)CN)C[C@H]3C)c12: 99.6
COc1ccc2c(c1)/C(=C/c1cnc[nH]1)C(O)=N2: 98.8
N#Cc1c[nH]c2c[nH]/c(=N\Cc3cccnc3)cc2/c1=N\c1ccc(F)c(Cl)c1: 98.5
Cc1nc(-c2ccccc2)c(-c2ccncc2)o1: 99.2
CN(C)CCCn1cc(C2=C(c3c[nH]c4ccccc34)C(=O)NC2=O)c2ccccc21: 95.2
NC(=O)c1cccc(-c2cc(Nc3ccc(OC(F)(F)F)cc3)ncn2)c1: 98
COc1cc2ncnc(Nc3ccc(OCc4ccccc4)cc3)c2cc1OC: 90
O=C1Nc2ccc(Br)cc2/C1=C\c1cc2c([nH]1)CCCC2: 99.7
N#C/C(=C\c1ccc(O)c(O)c1)C(=O)NCc1ccccc1: 101
CO[C@@H]1[C@H](N(C)C(=O)c2ccccc2)C[C@H]2O[C@]1(C)n1c3ccccc3c3c4c(c5c6ccccc6n2c5c31)C(=O)NC4: 90.5
COc1ccc(S(=O)(=O)N(CCO)c2ccccc2CN(C)C/C=C/c2ccc(Cl)cc2)cc1: 92.8
Ic1cccc(CSc2nnc(-c3ccncc3)o2)c1: 99.7
O=C(c1cc2cc(O)ccc2[nH]1)c1cc2cc(O)ccc2[nH]1: 92.3
Fc1ccc(-c2nc3n(c2-c2ccncc2)CCS3)cc1: 96.1
CN(C)c1ccc(/C=C2\C(=O)Nc3ccccc32)cc1: 94.9
CN(C)S(=O)(=O)c1ccc2c(c1)/C(=C/c1cc3c([nH]1)CCCC3)C(=O)N2: 105
O=C1c2ccccc2-c2nc3nnnn3nc21: 90.2
CCCCc1c(-c2ccc(OC)cc2)[nH]c2nccnc12: 99.8
Cn1c2ccccc2c2c3c(c4c5ccccc5n(CCC#N)c4c21)CNC3=O: 87.2
COc1cc(Nc2c(C#N)cnc3cc(OCCCN4CCN(C)CC4)c(OC)cc23)c(Cl)cc1Cl: 49.4
O=C1C(Cl)=C(N2C(=O)CCC2=O)C(=O)c2ccccc21: 97
c1ccc2c(-c3ccncc3)c[nH]c2c1: 100
CC(C)(C)c1cc(C=C(C#N)C#N)cc(Br)c1O: 107
COc1ccc(C(=O)Nc2sc3c(c2C(N)=O)CCCC3)cc1OC: 92.4
Cc1cccc(-c2nc(C(C)(C)C)[nH]c2-c2ccc3c(c2)OCO3)n1: 103
COc1cc2ncnc(Nc3ccc(Oc4ccccc4)cc3)c2cc1OC: 103
COc1ccc2c(c1)c(C1=C(c3c[nH]c4ccccc34)C(=O)NC1=O)cn2CCCN(C)C: 97
O=C1NC(=O)c2c1c1c3ccccc3[nH]c1n1cncc21: 79.7
